Data origin, for the record: patent US20260193255A1

molecular target: ActRIIB (Homo sapiens, UniProt Q13705)
Sequence (Q13705 19-512): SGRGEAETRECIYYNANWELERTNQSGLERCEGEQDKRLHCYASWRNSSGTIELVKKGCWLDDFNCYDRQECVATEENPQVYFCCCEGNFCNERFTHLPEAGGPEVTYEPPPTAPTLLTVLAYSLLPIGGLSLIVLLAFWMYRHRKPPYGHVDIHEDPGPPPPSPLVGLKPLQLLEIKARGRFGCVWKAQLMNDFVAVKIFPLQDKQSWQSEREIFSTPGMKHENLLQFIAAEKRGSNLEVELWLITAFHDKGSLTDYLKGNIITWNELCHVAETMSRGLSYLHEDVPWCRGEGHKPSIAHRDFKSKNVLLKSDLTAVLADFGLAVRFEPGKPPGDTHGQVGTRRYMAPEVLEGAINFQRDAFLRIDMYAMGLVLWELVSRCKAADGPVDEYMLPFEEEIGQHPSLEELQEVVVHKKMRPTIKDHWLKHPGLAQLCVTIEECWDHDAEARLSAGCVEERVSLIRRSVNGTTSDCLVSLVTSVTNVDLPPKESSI
Each record here notes measured IC50.
# output: bare number, implied unit nM

>  <Entry Smiles>
CN1CCN(c2ccc(-c3cnc4[nH]cc(-c5ccnn5C)c4c3)cc2)CC1

>  <IC50 / nM>
1.4

$$$$
>  <Entry Smiles>
CN1CCN(c2ccc(-c3cnc4[nH]cc(-c5ccc6[nH]ccc6c5)c4c3)cc2)CC1

>  <IC50 / nM>
1.1

$$$$
>  <Entry Smiles>
Cc1noc(C)c1-c1c[nH]c2ncc(-c3ccc(N4CCN(C)CC4)cc3)cc12

>  <IC50 / nM>
24.2

$$$$

Request: IC50, test system ActRIIB (Homo sapiens, UniProt Q13705), entry CN1CCN(c2ccc(-c3cnc4[nH]cc(-c5cccnc5)c4c3)cc2)CC1 87.3
